System: Leishmania donovani
test: Antipromastigote activity against Leishmania donovani MHOM IN/Dd8 assessed as luciferase activity after 72 hrs
Format: functional, organism-based
measurement.parameters: MHOM IN/Dd8, 72 h
Threshold-based label: IC90 under 40 µg/mL gives YES, IC90 not under 40 µg/mL gives NO.

Check if IC90 falls below 40 µg/mL for COc1ccccc1-n1ccc(=O)c(OCCCCCOc2c(C)occc2=O)c1C .
YES

Check if IC90 falls below 40 µg/mL for Cc1occc(=O)c1OCCCCCOc1c(C)occc1=O .
NO

Check if IC90 falls below 40 µg/mL for Cc1occc(=O)c1OCCCCCOc1c(C)n(C2CCCCC2)ccc1=O .
YES

Check if IC90 falls below 40 µg/mL for Cc1cccc(-n2ccc(=O)c(OCCCCCOc3c(C)n(-c4cccc(C)c4C)ccc3=O)c2C)c1C .
YES

Check if IC90 falls below 40 µg/mL for COc1ccc(-n2ccc(=O)c(OCCCCCOc3c(C)n(-c4ccc(OC)cc4)ccc3=O)c2C)cc1 .
NO

Check if IC90 falls below 40 µg/mL for Cc1cccc(C)c1-n1ccc(=O)c(OCCCCCOc2c(C)occc2=O)c1C .
NO

Check if IC90 falls below 40 µg/mL for Cc1c(OCCCCCOc2c(C)n(C3CCCCC3)ccc2=O)c(=O)ccn1C1CCCCC1 .
YES

Check if IC90 falls below 40 µg/mL for Cc1occc(=O)c1OCCCCCOc1c(C)n(Cc2ccccc2)ccc1=O .
NO

Check if IC90 falls below 40 µg/mL for Cc1cccc(C)c1-n1ccc(=O)c(OCCCCCOc2c(C)n(-c3c(C)cccc3C)ccc2=O)c1C .
YES

Check if IC90 falls below 40 µg/mL for Cc1occc(=O)c1OCCCCCOc1c(C)n(-c2ccc(Cl)cc2)ccc1=O .
YES
